I'd be grateful if you could share measured IC50 at 8 days for these entries.
Test system: CYP3A
Test: CYP3A activity (pGlo) in donor two hESC-derived hepatocytes
Settings: human two
The reply should contain only the number, in µM.

IN: Look up IC50 at 8 days: c1ccc2c(c1)ccc1ccccc12
OUT: 58

IN: How about this molecule: c1ccc2c(c1)ccc1c3ccccc3ccc21
OUT: 10

IN: How about this molecule: c1ccc2c(c1)Cc1ccccc1-2
OUT: 25

IN: How about this molecule: CN1C(=O)CC[C@H]1c1cccnc1
OUT: 0.05

IN: How about this molecule: c1ccc2ccccc2c1
OUT: 68
